target_or_test_system: T1, Rhesus-ICAM1 (rhesus, UniProt Q5NKV6 28-480, limits assumed)
T1 sequence (looked up): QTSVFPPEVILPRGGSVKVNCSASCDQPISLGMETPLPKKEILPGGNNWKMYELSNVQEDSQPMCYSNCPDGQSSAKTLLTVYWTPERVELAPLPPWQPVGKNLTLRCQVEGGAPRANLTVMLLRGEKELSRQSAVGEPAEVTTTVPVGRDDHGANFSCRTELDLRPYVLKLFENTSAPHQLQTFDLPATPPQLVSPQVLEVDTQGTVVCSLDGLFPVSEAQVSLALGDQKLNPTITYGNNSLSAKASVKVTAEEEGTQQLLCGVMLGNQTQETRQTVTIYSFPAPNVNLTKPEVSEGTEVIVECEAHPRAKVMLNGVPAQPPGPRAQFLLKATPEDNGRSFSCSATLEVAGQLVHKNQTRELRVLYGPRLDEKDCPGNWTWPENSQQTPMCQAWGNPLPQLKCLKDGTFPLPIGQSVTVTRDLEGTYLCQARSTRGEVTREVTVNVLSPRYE
assay_protocol: SPR (Biacore 8K), antibody captured, antigen injected
readout: kon (M⁻¹ s⁻¹)
Respond numerically; units are M⁻¹ s⁻¹ and should not be typed.

Observe how each entry below is paired with its result.
>>> number("Anti-ICAM1 G12 (antibody, human IgG1, lambda, V domains shown, Human IgG1 with a lambda light chain; also called anti-ICAM1 clone G12) VH: QVQLQESGGGLVQPGGSLRLSCAASGFTFSSYAMSWVRQAPGKGLEWVSAISGSGGSTYYADSVKGRFTISRDNSKNTLYLQMSSLRAEDTAFYYCANSAYTGGWYDYWGHGTLVTVSS VL: ASELTQDPAVSVALGQTVKITCQGDSLRTYYASWYQQRPGQAPVLVIYGENSRPSGIPDRFSGSSSGNTASLTITGAQAEDEADYYCNSRDSSGNHLRVFGGGTKLTVLG")
"1.27e+06"
>>> number("15D10 (antibody, human IgG1, kappa, V domains shown, Rabbit-human chimeric anti-ICAM1: rabbit VH and VL on human IgG1 and kappa constant regions) VH: QSVEESGGRLVTPGTPLTLTCTASGFSLNNYYMSWVRQAPGKGLEWIGIISDSDNTYYASWAKGRFTISKTSTTVDLKITSPTTEDTATYFCARDWSLDSSSGYYYYDMDLWGPGTLVTVSA VL: AYDMTQTPASMEVAVGGTVTIKCQASQNIHSWLAWFQQKPGQPPKRLIYKASTLASGVPSRFKGSGSGTQFTLTISGVQSDDAATYYCQQGYSRSDGEHVFGGGTEVVVKR")
236000

// next entry
Request: Give reported kon value for 6G8 (antibody, human IgG1, kappa, V domains shown, Rabbit-human chimeric anti-ICAM1: rabbit VH and VL on human IgG1 and kappa constant regions) VH: QSVEESGGGLVKPGGTLTLTCTVSGFSLSSYAMGWVRQAPGKGLEYIGIIGSSGSTYYATWAKGRFTISKTSTTVDLKITSPTTEDTATYFCVRDPYDSYDAAYRLWGPGTLVTVSS VL: AYDMSQTPASVEVAVGGTVTIKCQASQSIYSYLSWYQQKPGQRPKLLIYDASKLASGVPSRFTGSGSGTEFTLTISGVQSDDAATYYCQQAYSSSNVDNVFGGGTEVVVKR
Response: 1.47e+06
